Each item that follows carries a reported z-score.
measurement-protocol: inhibitors of hydroxyurea-induced Chk1 phosphorylation, primary screen, imaging, HeLa, phospho-Chk1 nuclear intensity (AID 1187); also: test concentration not given here
experimental-setup: hydroxyurea-induced phospho-Chk1 immunofluorescence imaging, higher = more signal
Calls of active or inactive are those of the source. No rule for the calls is given here.

# count of solved cases: 3
# compound, z-score
rows = [
    ("CCCC[C@@H]1C[C@H]1[C@@H](NC(=O)c1ccccc1)c1ccc(C(F)(F)F)cc1", "-0.226 (inactive)"),
    ("COCCOC(=O)N1C(=O)[C@@]2(c3cc(C#Cc4ccc(OC)cc4)ccc31)[C@H](c1ccccc1OCCO)N1[C@H](c3ccccc3)[C@H](c3ccccc3)OC(=O)[C@H]1[C@@H]2C(=O)N1CCCCCCC1", "-0.648 (inactive)"),
    ("O=C1O[C@@H](c2ccccc2)[C@@H](c2ccccc2)N2[C@@H](c3ccc(O)cc3)[C@]3(C(=O)Nc4ccc(C#CC5(O)CCCCCC5)cc43)[C@@H](C(=O)NC[C@H](O)c3ccccc3)[C@H]12", "0.345 (inactive)"),
]

Value lookup for z-score; key = N#Cc1ccc(C(O)C2C=CC3C(=O)N(c4ccccc4)C(=O)C3N2Nc2ccccc2)cc1 (stereo not drawn) -0.383 (inactive)

----------
measurement-target: E3 ubiquitin-protein ligase XIAP (Homo sapiens)
measurement-protocol: XIAP binders, primary screen, biophysical, small-molecule microarray, fluorescence 635 nm (AID 1181);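 also: score merges 667 nm emission and signal to noise over triplicate slides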
experimental-setup: small-molecule microarray binding, higher = more signal
recorded-endpoint: composite z-score
Hey, just send me the number, nothing else.

Known composite z-score results, listed for orientation:
# molecule, composite z-score
data = [
    ("O=C1C[C@@](C(=O)NCCN2CCOCC2)(c2ccc([N+](=O)[O-])cc2)[C@@H](c2ccc(CO)cc2I)N1C1CCCCC1", 0.0223),
    ("O=c1n(-c2ccccc2)c(=O)n2n1CC(COc1ccccc1)=C([C@H](O)CCc1ccccc1)[C@@H]2CO", -0.472),
    ("Cc1ccc(S[C@]2(C(=O)O)CC(=O)N(C3Cc4ccccc4C3)[C@@H]2c2ccc(CO)cc2)cc1", -0.205),
    ("O=C1O[C@H](c2ccccc2)[C@H](c2ccccc2)N2[C@H]1[C@@H](C(=O)N1CCN(c3ncccn3)CC1)[C@]1(C(=O)Nc3ccc(C#CC4(O)CCCCCC4)cc31)[C@H]2c1ccc(OCCO)cc1", 0.258),
    ("CC[C@H]1C2=C3C(CC[C@H]4C(OCc5ccc(F)cc5C(F)(F)F)OC[C@](C)([C@@H]34)N(C(=O)OC(C)(C)C)C2)C(COC)C1COC (some centres not stated)", -0.0838),
]

Fill in the recorded composite z-score for this molecule, with E3 ubiquitin-protein ligase XIAP (Homo sapiens) as test system: CC(=O)NCCCC[C@@H]1NC(=O)[C@H]2C[C@@H](C(=O)NCCCC[N+](C)(C)C)[C@@H](c3cccc(OCCO)c3)N2C1=O 0.0223

Write down the reported composite z-score of C=C(C)C1CCC(C(O)C2C=CC3C(=O)N(C)C(=O)C3N2N2CCCCC2)CC1 (configuration not stated) , test system: E3 ubiquitin-protein ligase XIAP (Homo sapiens). 0.62

----------
measurement-target: Torsin-1A (Homo sapiens)
measurement-protocol: small-molecule binders of mutant TOR1A in lysate, primary screen, cell lysate, small-molecule microarray, COS7 lysate, 635/667 nm fluorescence (AID 1150);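 also: score pools 667 nm emission and signal to noise measuring lysate protein binding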
experimental-setup: COS7 hTOR1A mutant lysate, 635 nm fluorescence, higher = more signal
Label rule, in plain words: composite z-score of 0.4 and up is 1 (yes), under 0.4 is 0 (no).

Past entries and their recorded results:
# smi, answer-label
rows = [
    ("CC(C)[Si](C#CCCCC#N)(O[C@H](c1ccccc1)c1cn([C@H](CO)Cc2ccccc2)nn1)C(C)C", "1 (yes)"),
    ("CC(C)C[C@@H]1NC(=O)[C@@H]2C[C@H](C(=O)NCCCCCN)[C@H](c3ccc(O)cc3)N2C1=O", "1 (yes)"),
    ("CCCCC(=C=CC[C@@H](O)c1ccccc1OCCO)C[C@@H](O)COCc1ccccc1", "0 (no)"),
    ("COC(=O)[C@@]1(Cc2ccccc2)[C@@H]2C(=CC(=O)[C@H]2CC(=O)C(=O)N(C)C)CN1C(=O)c1ccccc1", "0 (no)"),
    ("C=CCOC(=O)[C@H]1[C@@H]2C(=O)O[C@@H](c3ccccc3)[C@@H](c3ccccc3)N2[C@@H](c2ccc(OCCOC(=O)[C@@H]3C[C@@H]4C(=O)N[C@@H](CCCCN(C)C)C(=O)N4[C@@H]3c3ccc(O)cc3)cc2)[C@]12C(=O)Nc1ccccc12", "1 (yes)"),
]

Does Cc1ccc(S[C@]2(C(=O)O)CC(=O)N(C3Cc4ccccc4C3)[C@@H]2c2ccc(CO)cc2)cc1 have a reported composite z-score of at least 0.4? 1 (yes)

Identify whether the reported composite z-score of the following molecule is 0.4 or greater: O=C1O[C@H](c2ccccc2)[C@H](c2ccccc2)N2[C@H]1[C@@H](C(=O)O)[C@]1(C(=O)Nc3ccc(C#CC4=CCCCC4)cc31)[C@H]2c1ccc(O)cc1 0 (no)

Would you say NCCCCCNC(=O)[C@@H]1C[C@@H]2C(=O)NCC(=O)N2[C@@H]1c1cccc(OCCO)c1 shows composite z-score at minimum 0.4? 1 (yes)

I'd appreciate it if you could say whether COC(=O)C(CC#Cc1ccc2c(c1)[C@]1(C(=O)N2)[C@H](C(=O)N2CCN(c3ncccn3)CC2)[C@H]2C(=O)O[C@H](c3ccccc3)[C@H](c3ccccc3)N2[C@@H]1c1ccc(OCCO)cc1)C(=O)OC has composite z-score at least equal to 0.4. 1 (yes)

Given the entry CCOC(=O)C[C@H]1[C@H](OC(=O)Cc2ccc3c(c2)OCO3)[C@@H](NC(=O)Cc2ccc(OC)cc2)c2cc(OCCCO)ccc2N1C(=O)c1ccc2ccccc2n1 , answer whether its composite z-score meets or surpasses 0.4. 1 (yes)

hey, is composite z-score for this one >= 0.4? C=CCNC(=O)[C@@H]1[C@H]2C(=O)O[C@H](c3ccccc3)[C@H](c3ccccc3)N2[C@H](c2ccc(O)cc2)[C@@]12C(=O)N(C(=O)OCCOC)c1ccc(C#CC3(O)CCCCCC3)cc12 0 (no)

Hello, I need to know if O=C(NCC(F)(F)F)[C@@H]1c2ccccc2C(=O)N(Cc2ccccc2C(F)(F)F)[C@H]1c1ccc(CO)cc1 has measured composite z-score not below 0.4. Thanks! 0 (no)

Say whether CCOC(=O)C[C@H]1[C@H](OC(=O)Cc2ccc3c(c2)OCO3)[C@@H](NC(=O)CC(C)C)c2cc(OCCCO)ccc2N1C(=O)Cc1ccc(OC)cc1 shows composite z-score of 0.4 or more. 0 (no)

----------
measurement-protocol: E. coli DRC41 culture turbidity changes, primary screen, E. coli filamentation inducer project, strain DRC41, OD650, 48 h (AID 1152);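 also: E. coli MC1000 strain DRC41 lacking acrAB efflux pump and sulA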
experimental-setup: E. coli DRC41 (acrAB sulA), higher = more signal, called active from +8 up or from −8 down
recorded-endpoint: z-score
Number, no unit, nothing else.

# compound, reported-result
measured = [
    ("CC(=O)c1ccc(C(O)C2C=CC3C(=O)N(c4ccccc4)C(=O)C3N2Nc2ccc(C#N)cc2)cc1 (configuration not stated)", -1.54),
    ("[N-]=[N+]=NCc1ccccc1[C@H]1OC(c2ccc(OCCCO)cc2)=N[C@@]1(CCS(=O)(=O)c1ccccc1)C(=O)N1CCCCC1", -0.193),
    ("C=C(C(=O)CC[C@@H](OC(C)=O)c1ccc(CO)o1)C(C)C", -0.167),
]

Any idea what its z-score is? The compound is Cc1cc(C)cc(N2C(=O)CSC2c2cccc([N+](=O)[O-])c2)c1 (configuration not stated) 0.421

----------
measurement-protocol: small-molecule binders of probe aNOTCH3, primary screen, biochemical, small-molecule microarray, 635/667 nm fluorescence (AID 1120);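 also: probe is a biotin-tagged antibody raised against NOTCH3 rather than NOTCH3 protein; score merges spot fluorescence near 667 nm with spot signal to noise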
experimental-setup: higher = more signal
Entries annotated with measured composite z-score
Answer with a bare number; do not write a unit.

Guide cases for composite z-score, answers given:
# compound, composite z-score
rows = [
    ("COC(=O)[C@@]1(Cc2ccc(OC)cc2)[C@@H]2C(=CC(=O)[C@H]2CC(=O)C(=O)N(C)C)CN1C(=O)c1ccccc1", 0.848),
    ("CN1C(=O)C2C=CC(C(O)COCc3ccccc3)N(N(c3ccccc3)c3ccccc3)C2C1=O (stereo not drawn)", 0.227),
    ("C=CCC(OC(C)=O)[C@@H]1[C@@H](N(Cc2cccc3ccccc23)C(=O)c2cccc3ccccc23)c2cc(OCCCO)ccc2N1C(=O)c1ccc(-c2ccccc2)cc1 (stereo partly drawn)", 0.122),
    ("C=C(COC)/C(=C/C[C@H](OC(C)=O)c1ccc(OCCO)cc1)c1cc(C(=O)OC)ccc1OC", 0.0642),
    ("O=c1n(-c2ccccc2)c(=O)n2n1CC(COc1ccccc1)=C([C@H](O)CCc1ccccc1)[C@@H]2CO", -0.187),
    ("CCCCCCc1nc(C2CC2)cc2c1[Si](C(C)C)(C(C)C)OC2", -0.197),
    ("CC(C)[Si](C#CCCCC#N)(O[C@H](c1ccccc1)c1cn([C@H](CO)Cc2ccccc2)nn1)C(C)C", -0.15),
]

Turning to the following compound.
Any idea what its composite z-score is? The compound is CC(C)N1C(=O)c2ccccc2[C@@H](C(=O)NC2CC2)[C@@H]1c1ccc(CO)cc1 0.0246
